All figures here come from patent US9408393B2.

Below, each of the molecules is paired with its reported Biofilm Prevention (antibiotic concentration) value.
- Test system: S. epidermidis S2400-1 biofilm
- Protocol description: Biofilm prevention, BisEDT-antibiotic combinations
- Assay type: cell-based, Staphylococcus epidermidis
- Settings: BisEDT 0.1 μg/ml
Quick note: give the figure in µg/mL, leave out the unit.

Need Biofilm Prevention (antibiotic concentration) of `CCC[C@@H]1C[C@@H](C(=O)N[C@@H]([C@H]2O[C@H](SC)[C@H](O)[C@@H](O)[C@H]2O)[C@H](C)Cl)N(C)C1` , thanks. 12

Need Biofilm Prevention (antibiotic concentration) of `CN[C@H](CC(C)C)C(=O)N[C@H]1C(=O)N[C@@H](CC(N)=O)C(=O)N[C@H]2C(=O)N[C@H]3C(=O)N[C@H](C(=O)N[C@H](C(=O)O)c4cc(O)cc(O)c4-c4cc3ccc4O)[C@H](O)c3ccc(c(Cl)c3)Oc3cc2cc(c3O[C@@H]2O[C@H](CO)[C@@H](O)[C@H](O)[C@H]2O[C@H]2C[C@](C)(N)[C@H](O)[C@H](C)O2)Oc2ccc(cc2Cl)[C@H]1O` , thanks. 0.1

Need Biofilm Prevention (antibiotic concentration) of `Cc1nnc(SCC2=C(C(=O)O)N3C(=O)[C@@H](NC(=O)Cn4cnnn4)[C@H]3SC2)s1` , thanks. 1

Need Biofilm Prevention (antibiotic concentration) of `CCOc1ccc2ccccc2c1C(=O)N[C@@H]1C(=O)N2[C@@H]1SC(C)(C)[C@@H]2C(=O)O` , thanks. 8

Need Biofilm Prevention (antibiotic concentration) of `CO[C@H]1/C=C/O[C@@]2(C)Oc3c(C)c(O)c4c(O)c(c(/C=N/N5CCN(C)CC5)c(O)c4c3C2=O)NC(=O)/C(C)=C\C=C\[C@H](C)[C@H](O)[C@@H](C)[C@@H](O)[C@@H](C)[C@H](OC(C)=O)[C@@H]1C` , thanks. 0.04

Need Biofilm Prevention (antibiotic concentration) of COc1c(N2CCNC(C)C2)c(F)cc2c(=O)c(C(=O)O)cn(C3CC3)c12 (stereo not shown) , thanks. 0.1

Need Biofilm Prevention (antibiotic concentration) of `CN(C)c1ccc(O)c2c1C[C@H]1C[C@H]3[C@H](N(C)C)C(O)=C(C(N)=O)C(=O)[C@@]3(O)C(O)=C1C2=O` , thanks. 0.08

====

- Tested on: S. epidermidis S2400-1 biofilm
- Protocol description: Biofilm prevention, BisEDT-antibiotic combinations
- Assay type: cell-based, Staphylococcus epidermidis
- Settings: 0.05 μg/ml BisEDT
Label not satisfied if Δ (0.05 BE), biofilm prevention falls below 4; label satisfied in every other case.

Please review the entries below; each comes with its answer.
>>> assigned_label("CN[C@H](CC(C)C)C(=O)N[C@H]1C(=O)N[C@@H](CC(N)=O)C(=O)N[C@H]2C(=O)N[C@H]3C(=O)N[C@H](C(=O)N[C@H](C(=O)O)c4cc(O)cc(O)c4-c4cc3ccc4O)[C@H](O)c3ccc(c(Cl)c3)Oc3cc2cc(c3O[C@@H]2O[C@H](CO)[C@@H](O)[C@H](O)[C@H]2O[C@H]2C[C@](C)(N)[C@H](O)[C@H](C)O2)Oc2ccc(cc2Cl)[C@H]1O")
"not satisfied"
>>> assigned_label("Cc1nnc(SCC2=C(C(=O)O)N3C(=O)[C@@H](NC(=O)Cn4cnnn4)[C@H]3SC2)s1")
"not satisfied"
>>> assigned_label("CO[C@H]1/C=C/O[C@@]2(C)Oc3c(C)c(O)c4c(O)c(c(/C=N/N5CCN(C)CC5)c(O)c4c3C2=O)NC(=O)/C(C)=C\\C=C\\[C@H](C)[C@H](O)[C@@H](C)[C@@H](O)[C@@H](C)[C@H](OC(C)=O)[C@@H]1C")
"not satisfied"
>>> assigned_label("CCC[C@@H]1C[C@@H](C(=O)N[C@@H]([C@H]2O[C@H](SC)[C@H](O)[C@@H](O)[C@H]2O)[C@H](C)Cl)N(C)C1")
"satisfied"
>>> assigned_label("CCOc1ccc2ccccc2c1C(=O)N[C@@H]1C(=O)N2[C@@H]1SC(C)(C)[C@@H]2C(=O)O")
"not satisfied"
>>> assigned_label("COc1c(N2CCNC(C)C2)c(F)cc2c(=O)c(C(=O)O)cn(C3CC3)c12 (stereo not shown)")
"satisfied"

Now take the following molecule into account.
Given the entry `CN(C)c1ccc(O)c2c1C[C@H]1C[C@H]3[C@H](N(C)C)C(O)=C(C(N)=O)C(=O)[C@@]3(O)C(O)=C1C2=O` , answer whether its Δ (0.05 BE), biofilm prevention meets or surpasses 4. not satisfied
